The values you see were collected from patent US20210380703A1.

target: Human Fc (human); test: ELISA, negative control
measured.quantity: optical density (OD)
Write the value in OD as a bare number.

binder	quantity.unit	optical density
369_G06 (antibody, V domains shown) VH: EVQLLESGGGLVQPGGSLRLSCAASGFTFDSYGMNWVRQAPGKGLEWVAGINYNGGYTSYADSVKGRFTISRDNSKNTLYLQMNSLRAEDTAVYYCARSANWHDTALDYWGQGTLVTVSS VL: DIQMTQSPSSLSASVGDRVTITCRASQSILSYVNWYQQKPGKAPKLVIYAATSRASGVPSRFSGSGSGTDFTLTISSLQPEDFATYYCQQSYENPLTFGGGTKVEIK	OD	0.474

Asked: Look at this binder and give its reported optical density. 373_G12 (antibody, V domains shown) VH: EVQLLESGGGLVQPGGSLRLSCAASGFTFSSYSMNWVRQAPGKGLEWVSNINYNGGYTSYADSVKGRFTISRDNSKNTLYLQMNSLRAEDTAVYYCARSANWHDTALDYWGQGTLVTVSS VL: DIQMTQSPSSLSASVGDRVTITCRASQSILSYLNWYQQKPGKAPKLLIYATTSLASGVPSRFSGSGSGTDFTLTISSLQPEDFATYYCQQSYNSPLTFGGGTKVEIK
Given back: 0.174

Asked: Look at this binder and give its reported optical density. 369_H06 (antibody, V domains shown) VH: EVQLLESGGGLVQPGGSLRLSCAASGFTFSSYGMNWVRQAPGKGLEWVANINYNGGYKSYADSVKGRFTISRDNSKNTLYLQMNSLRAEDTAVYYCARSANWHDTALDYWGQGTLVTVSS VL: DIQMTQSPSSLSASVGDRVTITCRASQSIVSYVNWYQQKPGKAPKLLIYAATSRASGVPSRFSGSGSGTDFTLTISSLQPEDFATYYCQQSYDTPLTFGGGTKVEIK
Given back: 0.347
